MEASURED QUANTITY: melting point

INSERT INTO assay_data (molecule, value_reported) VALUES
  ('CC(C)=CCOc1ccc(C(=O)C=Cc2c[nH]c3ccccc23)c(O)c1', '228 to 230 °C'),
  ('CC(=O)Nc1ccc(C(=O)N2CCOCC2)cc1N', '198 to 200 °C'),
  ('O=C1CCc2c1cccc2C(=O)c1ccc(Cl)cc1', '146 °C'),
  ('CC(C)(C)CC(=O)N1C[C@@H](c2c[nH]c3ccccc23)[C@H](c2cn3c4c(cccc24)CCC3)C1', '202 to 204 °C'),
  ('Nc1ncc(C2CCN(c3ccc([N+](=O)[O-])cc3)CC2)c(N)n1', '> 250 °C'),
  ('CCOC(=O)c1nc(O)sc1C(=O)CBr', '105 to 108 °C'),
  ('CC(C)C[C@H](NC(=O)OC(C)(C)C)C(=O)C=[N+]=[N-]', '72 to 74 °C'),
  ('CCC12CCC(=O)C=C1c1c(cc(O)c(Cl)c1Cl)C2 (stereo not given)', '260 to 265 °C'),
  ('O=c1[nH]nc(-c2ccc(NN=C(c3ccc(O)cc3O)c3ccc(O)cc3O)cc2)c2ccccc12', '140 to 146 °C'),
  ('COc1cccc(C2=Nc3ccc(N4CCCC4)cc3C(=O)C2)c1OC', '258 to 260 °C');

* * *

melting point values by entry
MEASURED QUANTITY: melting point

INSERT INTO measurements (compound, measured_quantity, value_reported) VALUES
  ('CC(C)(N)CNC(CO)(CO)CO', 'melting point', '73 to 75 °C'),
  ('COc1cc(/C=C/C(=O)O)cc(OC)c1OCc1ccccc1', 'melting point', '102 °C'),
  ('CCC(C)(C)c1ccc(Oc2cc(NC(=O)Nc3ccc(C#N)cc3)c(O)cc2[N+](=O)[O-])c(C(C)(C)CC)c1', 'melting point', '212 to 215 °C'),
  ('Nc1nc(N)c(CCCCCc2ccccc2)c(CCCCc2ccccc2)n1', 'melting point', '75 to 78 °C'),
  ('C#CCc1c(C)nc2c(OCc3c(C)cccc3NC(=O)C(C)O)cccn12 (configuration not stated)', 'melting point', '186 to 188 °C'),
  ('Cc1ccccc1-c1nsc(SN)n1', 'melting point', '110 to 112 °C'),
  ('CCc1c(Cl)sc2[nH]c(=O)c(=O)[nH]c12', 'melting point', '282 to 284 °C'),
  ('N#CCCSN1C(=O)CCC1=O', 'melting point', '110 to 112 °C'),
  ('CN(C(CCn1c(=O)cc(Cl)n(C)c1=O)C(=O)NO)S(=O)(=O)c1ccc(Oc2ccccc2)cc1 (configuration not stated)', 'melting point', '90 to 93 °C'),
  ('CNC(CC(=O)O)c1ccccc1 (configuration not stated)', 'melting point', '167 to 168 °C'),
  ('CC(C=CCOC(=O)c1ccc(C(N)=O)cc1)Oc1ccc(Oc2cnc3cc(Cl)ccc3n2)cc1 (configuration not stated)', 'melting point', '144 to 148 °C'),
  ('Cc1ccc(N2C(=O)c3ccccc3C2=O)c(O)c1', 'melting point', '251 to 254 °C'),
  ('CC1(C)C=Nc2cc3[nH]c(-c4ccncc4)cc3cc21', 'melting point', '> 300 °C'),
  ('c1ccc(CN2CCc3[nH]c4c(-c5ccccc5)cccc4c3CC2)cc1', 'melting point', '78 to 79 °C'),
  ('COc1ccc2c(c1)CCCC2n1cc[nH]c1=S (configuration not stated)', 'melting point', '190 to 192 °C'),
  ('O=C(C(=O)c1cccc(C(=O)C(=O)c2ccc(Oc3ccc(Br)cc3)cc2)c1)c1ccc(Oc2ccc(Br)cc2)cc1', 'melting point', '120 to 122 °C'),
  ('CSC1Oc2cc3ccccc3cc2C1=O (configuration not stated)', 'melting point', '118 to 120 °C'),
  ('CC(NCCN(CCNC(C)=C1C(=O)CC(C)(C)CC1=O)C(=O)CCC(=O)O)=C1C(=O)CC(C)(C)CC1=O', 'melting point', '65 to 68 °C'),
  ('C=C1CC(C)(COc2cc(=O)oc3ccccc23)OC1=O (configuration not stated)', 'melting point', '161 to 162 °C'),
  ('NC(=O)CCNc1ccc(OC(F)(F)F)cc1', 'melting point', '76 °C'),
  ('CCOC(=O)C1=C(N2CCCCC2)N=C(C)C(C(=O)OCC)C1c1ccccc1C#N (configuration not stated)', 'melting point', '103 °C'),
  ('CC(C)CC(C)Oc1c(-c2ccc(S(C)(=O)=O)cc2)cnn(-c2ccc(F)c(F)c2)c1=O (configuration not stated)', 'melting point', '132 to 133 °C');

* * *

melting point values by entry
MEASURED QUANTITY: melting point

INSERT INTO results (compound, value_reported) VALUES
  ('Cn1cc(-c2cccc(C(F)(F)F)c2)c(=O)c(-c2cccc(C(F)(F)F)c2)c1', '152 to 154 °C'),
  ('CC1C=C(c2nnn[nH]2)CN(CC(=O)O)C1 (stereo not given)', '150 to 152 °C'),
  ('N#Cc1ccc(NCCCN2C3CCC2CNC3)cc1', '44 to 46 °C'),
  ('COC(=O)Cc1ccc(CNC(=O)C2Cc3ccccc3N2S(=O)(=O)c2ccc(-c3ccc(F)cc3F)cc2)cc1 (stereo not given)', '68 to 72 °C'),
  ('O=C(CCCC1CCCCC1)C1=C(O)CSC1=O', '45 to 50 °C');

* * *

MEASURED QUANTITY: melting point

INSERT INTO measurements (compound, measured_quantity, value_reported) VALUES
  ('O=C(c1ccc(CBr)cc1)c1c(Cl)cccc1Cl', 'melting point', '126 to 130 °C'),
  ('O=C(CBr)c1csc(C(F)(F)F)n1', 'melting point', '36 to 37 °C'),
  ('O=C1c2ccc(NC(=O)C3CC3)cc2C(=O)c2cc(NC(=O)C3CC3)ccc21', 'melting point', '352 °C'),
  ('Cn1ccnc1CCNC(=O)c1ccccc1NS(=O)(=O)c1cccc(C(F)(F)F)c1', 'melting point', '127 to 129 °C'),
  ('CN(CCc1ccc(NC(N)=S)cc1)Cc1ccccc1', 'melting point', '119 to 122 °C'),
  ('CCCCCS(=O)(=O)NC(=O)/C=C/c1ccc(OCCO[Si](C(C)C)(C(C)C)C(C)C)cc1Oc1ncc(C(F)(F)F)cc1Cl', 'melting point', '106 to 108 °C'),
  ('CC1(C)OC(=S)Nc2ccc(-c3cc(Cl)cc(Cl)c3)cc21', 'melting point', '206 to 208 °C'),
  ('CC(C)n1nc(-c2sc(C(=O)NC3CC3)nc2-c2ccc(F)cc2)ccc1=O', 'melting point', '157 to 158 °C'),
  ('CCOC(=O)c1cn(-c2cnsn2)c2nc(Cl)c(F)cc2c1=O', 'melting point', '175 to 178 °C'),
  ('COC(=O)CC(NC1CC1)=C(C(=O)OC)C(=O)C(F)(F)F', 'melting point', '51.5 to 52.5 °C'),
  ('CCOC(=O)NC1(c2ccccc2Cl)CCCCC1=O (stereo not given)', 'melting point', '112 to 114 °C'),
  ('CC(=O)S[C@@H]1C[C@@H](C(=O)N(CCc2ccccc2)CC(=O)O)N(S(=O)(=O)c2ccc3ccccc3c2)C1', 'melting point', '190 to 193 °C'),
  ('O=C1COC(=O)C1=Cc1ccc(C(=O)O)s1', 'melting point', '255 to 268 °C'),
  ('c1ccc(-c2ncc(-c3cnc(-c4ccncc4)[nH]3)cn2)cc1', 'melting point', '300 °C'),
  ('c1ccc(C(c2ccccc2)N2CCc3ccccc32)cc1', 'melting point', '62 to 63.5 °C'),
  ('COc1ccc(Nc2nc(-c3ccc4scnc4c3)cn3ccnc23)cc1OC', 'melting point', '179 to 181 °C'),
  ('CCOC(=O)CCN1CCN(C2=Nc3ccccc3Sc3ccc(Cl)cc32)CC1', 'melting point', '79 to 80 °C'),
  ('CNC(=O)c1cc(-c2ccc(OC)cc2)nn(C(C)C)c1=O', 'melting point', '154 °C'),
  ('C[C@H](NC(=O)C[C@@H](CC(=O)O)c1ccc(F)cc1)c1ccccc1', 'melting point', '195 to 196 °C'),
  ('O=C(O)c1ccc2c(CCCCN3CC=C(c4ccccc4)CC3)c[nH]c2c1', 'melting point', '268 °C'),
  ('Fc1ccc(C(=C2SCCCS2)c2ccc(F)cc2)cc1', 'melting point', '169 to 171 °C'),
  ('CN1CCN(C(=O)CCCCCNC(=O)c2cc(OCc3ccccc3)ccc2OCc2ccccc2)CC1', 'melting point', '78 to 79 °C'),
  ('CCS(=O)(=O)N(C)C1CC(C)(C)Oc2ccc(OCc3ccccc3)cc21 (stereo not given)', 'melting point', '91 to 93 °C'),
  ('N[C@@H](Cc1ccc(F)cc1)[C@H](O)c1ccc(F)cc1 (racemic)', 'melting point', '66 to 67 °C'),
  ('Cc1sc(-c2ccccc2)nc1COc1ccc(COc2ncccc2C=O)cc1', 'melting point', '101 to 102 °C'),
  ('NC(=O)c1c(NC(=O)C2CC2)sc2c(O)c(Br)ccc12', 'melting point', '235 to 236 °C'),
  ('CC1(C)CC(=O)N(C(=O)Nc2ccccc2)CC(C)(C)N1O', 'melting point', '112 to 114 °C'),
  ('O=[N+]([O-])c1ccc2sc(NCCO)nc2c1', 'melting point', '183 °C'),
  ('CCOC(=O)c1cnc(S(=O)Cc2ccccc2)n1-c1c(CC)cccc1CC (stereo not given)', 'melting point', '82 to 83 °C'),
  ('CCCc1c[nH]c([C@@H]2Cc3ccccc3N2C(C)=O)n1', 'melting point', '174 to 175 °C'),
  ('CCOC(=O)c1c(CC)nn2c(-c3cccc(C(F)(F)F)c3)ccnc12', 'melting point', '142 to 143 °C'),
  ('CS(=O)(=O)Nc1cc([C@@H](O)CNC2CCN(c3ccc(S(=O)(=O)N(CC(=O)O)CC(=O)O)cc3)CC2)ccc1O', 'melting point', '163 to 166 °C'),
  ('Cc1nc(N2CCN(Cc3ccc(C(F)(F)F)cc3)C2=O)sc1-c1cnco1', 'melting point', '160 to 162 °C'),
  ('NS(=O)(=O)c1cc(C(=O)CBr)ccc1Cl', 'melting point', '169 °C'),
  ('COc1cc(-c2nc(-c3ccc(N(C)C)cc3)c(-c3ccc(N(C)C)cc3)[nH]2)cc(OC)c1O', 'melting point', '258 to 260 °C'),
  ('CCCCN(Cc1ccc(Cl)cc1)c1cncnc1', 'melting point', '67 to 68 °C'),
  ('CC(C)(Oc1ccc(NC(=O)Oc2ccc(Cl)cc2)cc1)C(=O)O', 'melting point', '179 to 182 °C'),
  ('CCOP(=O)(OCC)C1(P(=O)(OCC)OCC)CC(C(=O)c2ccccc2)=NN1', 'melting point', '134 °C'),
  ('CC1CCN(C2=Nc3cc(Br)ccc3N3CCc4cccc2c43)CC1', 'melting point', '177 to 179 °C'),
  ('CC1(C)Oc2ccc(C#N)cc2C(Oc2ccccn2)C1O (stereo not given)', 'melting point', '102 to 103 °C');
